Tested on: DLD-1 colon
Assay: NCI tumour cell line growth inhibition, 48 h
Reported TGI values for the following compounds.

Compound	TGI
O=C(NO)c1ccc(O)c(O)c1	> 100 µM
COC1=C2CC(C)CC(OC)C(O)C(C)/C=C(\C)C(OC(N)=O)C(OC)/C=C\C=C(/C)C(=O)NC(=C(/C=N/N3CCCCC3)C1=O)C2=O (stereo not drawn)	23.4 µM
Cc1ccccc1-n1c(C)nc(-c2ccccc2)cc1=O	> 100 µM

====

Tested on: HOP-92 NSCLC
Outcome codes: active, inactive

Compound	Assigned Class
CN(C)CCN1C(=O)c2cccc3cccc(c23)C1=O	inactive
CC(C)COC(=O)c1ccc2[nH]c(O)c(C=Nc3ccc(S(N)(=O)=O)cc3)c2c1	inactive
Cn1cnc([N+](=O)[O-])c1Sc1ncn[nH]1	inactive
CC(=O)Oc1ccc(C(c2ccc(OC(C)=O)cc2)c2ccccn2)cc1	inactive
c1ccc(CNc2nc(Nc3ccccc3)nc3ccccc23)cc1	inactive
O=S(=O)(NCCNc1nccc(-c2c(-c3ccc(F)cc3)nc3sccn23)n1)c1ccccc1	inactive
COc1ccc(OC)c(Nc2nc(-c3c(C)nc4sccn34)cs2)c1	inactive
Cc1cc(OCc2nnc3n2N=C(c2ccc(Cl)cc2Cl)CS3)ccc1Cl	inactive
COc1cc(/C=C/C(=O)c2cccnc2Nc2ccc(F)cc2)cc(OC)c1OC	inactive
CC(C)CCN[C@@H]1CCc2cc(O)c(N3CC(=O)NS3(=O)=O)c(F)c2C1	inactive
CCn1c2ccccc2c2cc(C(O)c3cccc4ncccc34)ccc21 (stereo unspecified)	active

====

Parameter: GI50. Scope: all listed entries.
System: SK-OV-3 ovarian

Compound	GI50
Cc1c(Sc2ccccc2)[n+](=O)c2cc(Cl)c(Cl)cc2n1[O-]	> 100 µM
C=CCCCc1ccc(C(O)CCCCCCCCCCCC)o1 (stereo unspecified)	16.4 µM
C=C1c2c(Cl)ccc(O)c2C(O)=C2C(=O)[C@]3(O)C(O)=C(C(N)=O)C(=O)[C@@H](N(C)C)[C@@H]3[C@@H](O)[C@H]12	1 µM
CCN(CC)CCSCCCNc1c2ccc(Cl)cc2nc2ccc(OC)cc12	1.56 µM
COC(=O)[C@@H](C)C[C@H](Cc1ccccc1)NC(=O)c1csc([C@@H](C[C@H](C(C)C)N(C)C(=O)[C@H](C)NC(=O)[C@H]2CCCCN2C)OC(C)=O)n1	11 µM
COc1ccc(Nc2cc(C)nc(N3CCN(c4ccnc5cc(Cl)ccc45)CC3)n2)cc1	4.81 µM

====

System: K-562 leukemia
Assay: NCI tumour cell line growth inhibition, 48 h

Compound	TGI
O=C1C2Nc3ccccc3SC2C(=O)N1c1ccccc1C(F)(F)F (centres undefined)	> 100 µM
O=C(O)c1ccccc1NC(=O)C1CCCCC1	> 100 µM
O=C1C=CC(O)C2C1CC13SSC4(CC5C(=O)C=CC(O)C5N4C1=O)C(=O)N23 (centres undefined)	> 100 µM
O=C(CCN1CCOCC1)C(=Cc1ccccc1)C(=O)CCN1CCOCC1	2.15 µM
Cc1cc(N(CCC#N)CCC#N)ccc1C=Nc1ccc(C(=O)NN2C(=O)/C(=C/c3ccc(N(CCC#N)CCC#N)cc3)N=C2c2cc([N+](=O)[O-])ccc2Cl)cc1	> 100 µM
Cn1cnc([N+](=O)[O-])c1Sc1ncn[nH]1	> 100 µM
CC(=O)Oc1ccc(C(c2ccc(OC(C)=O)cc2)c2ccccn2)cc1	> 100 µM
O=C(NS(=O)(=O)c1ccccc1)C(Cc1ccccc1)C(Cc1ccccc1)C(=O)NS(=O)(=O)c1ccccc1 (centres undefined)	> 100 µM
O=C(O)C1=C(C(=O)Nc2ccc(NC(=O)C3=C(C(=O)O)C4C=CC3C4)cc2)C2C=CC1C2	> 100 µM
